EXPERIMENT SUMMARY: logP by HPLC (EEC directive 79/831 Annex V. A8, gradient method)
Type: physicochemical
EXPERIMENTAL CONTEXT: starting materials/intermediates, read-out: HPLC: log P
ENDPOINT LABEL: chromatographic logP

Some solved entries appear below for comparison.
CON=C1C(=NOCCSC(C)=O)Oc2ccccc21 (single isomer, unassigned) [VI-1 Isomer A] = 3.01
CON=C1C(=NOCCSC(C)=O)Oc2ccccc21 (single isomer, unassigned) [VI-1 Isomer B] = 3.18
CON=C1C(=NOCCBr)Oc2ccccc21 (single isomer, unassigned) [VII-1 Isomer B] = 3.23
CON=C(C1=NOCCS1)c1ccccc1Oc1ncnc(F)c1F [IV-1] = 2.8

a: CON=C1C(=NOCCBr)Oc2ccccc21 (single isomer, unassigned) [VII-1 Isomer A]
b: CON=C(C1=NOCCS1)c1ccccc1O [II-1]
Response body: label of entry with the larger chromatographic logP; valid values a , b . Respond with the label that goes with your answer.
a
